Values compiled from PubChem BioAssay (Tox21).

Test: p53 small molecule agonists, cell-based qHTS assay: qHTS cell viability counter screen (AID 1963581); also: nearly all actives have a fitted effect of over 45% in size
Conditions: p53RE-bla HCT-116 viability, ATP luminescence, 16 h; series mostly up to 66 µM
Description: National Center for Advancing Translational Sciences [NCATS] Division of Preclinical Innovation [DPI] U.S. Environmental Protection Agency [EPA] National Institutes of Environmental Health Sciences [NIEHS] National Toxicology Program [NTP] U.S. Food and Drug Administration [FDA] p53, a tumor suppressor protein, is activated following cellular insult, including DNA damage and other cellular stresses. […] The activation of the reporter gene under culture conditions can be detected by fluorescence intensity. […]
Inconclusive results are not listed. The source made the active and inactive calls. Calls follow the shape of the full dose curve.
The reply should be one of these categories: true (active), false (inactive)

What was the test verdict on C=C(C)C(=O)OCC(C)O (configuration not stated) ?
false

What call does the record list for O=C(O)c1ccc2c(c1)C(=O)OC2=O ?
false

Name the outcome recorded for CC(=O)CC(c1ccccc1)c1c(O)c2ccccc2oc1=O (configuration not stated) in the assay.
false

Dear all, I need the recorded test outcome for N#Cc1ccccc1 , thank you.
false

Any idea what this test logged for Cc1ccc([N+](=O)[O-])cc1S(=O)(=O)O ?
false

Please share the test call associated with C=C(C)C(=O)O .
false

Recorded call for OC1C(O)C(O)C(O)C(O)C1O (configuration not stated) ?
false

What did this assay record as the result for CC(=O)Nc1ccccc1 ?
false

Status in this test for C[C@]12C=CC(=O)C=C1CC[C@@H]1[C@@H]2C(=O)C[C@@]2(C)[C@H]1CC[C@]2(O)C(=O)CO ?
false

Please indicate how the test categorized CCCCC(C=O)CC (configuration not stated) .
false

Returns: the outcome recorded for Nc1c2c(nc3ccccc13)CCCC2 in this assay.
false

What did this assay record as the result for C/C=C1/CC2C=CC1C2 (configuration not stated) ?
false

GET /call?item= CCOC(=O)/C=C\C(=O)OCC returns the recorded outcome of this test.
false

Which outcome did this test record for the compound CC(C)(C#N)c1cc(Cn2cncn2)cc(C(C)(C)C#N)c1 ?
false

Hey, what did the test say about CCN1CCCC1=O ?
false

Which result was noted for this compound in the test: Cc1ccc(C(C)C)cc1
false

GET /call?item= CS(=O)(=O)c1ccc([C@@H](O)[C@@H](CO)NC(=O)C(Cl)Cl)cc1 returns the recorded outcome of this test.
false

Hey, what did the test say about CC(=O)Oc1ccc(C)cc1 ?
false

In this assay, the call recorded for CCOC(=O)NNc1nncc2ccccc12 was what?
false

Hey, what did the test say about CC1=C(C)S(=O)(=O)CCS1(=O)=O ?
false

Would you mind telling me which call this test gave CCCCCCCCCCCCCCCCCC(=O)OCC(O)CO (configuration not stated) ?
false

Write down the call the test reported for this compound. Item: O=C(Cl)c1c(Cl)c(Cl)c(C(=O)Cl)c(Cl)c1Cl
false

I'd appreciate the recorded outcome for NC(=O)c1ccccc1O from this test.
false

Hey, what did the test say about C=C(C)CNCC ?
false

Please share the test call associated with OCCCc1ccccc1 .
false

I'd appreciate the recorded outcome for C#C[C@]1(O)CC[C@H]2[C@@H]3CCc4cc(OC)ccc4[C@H]3CC[C@@]21C from this test.
false

What outcome does the record of this test show for CC(=O)Oc1c(C)c(C)c2c(c1C)CC[C@@](C)(CCC[C@H](C)CCC[C@H](C)CCCC(C)C)O2 ?
false

// return assay outcome for Nc1cccc(C(F)(F)F)c1
false

Entry COc1ccc2c(c1)c(CC(=O)O)c(C)n2C(=O)c1ccc(Cl)cc1 : call = ?
false

Hi, do you know how OCCO came out in this test?
false

For Cc1ccc2c(n1)Oc1ccc(C(C)C(=O)OCC(=O)N(C)C)cc1C2 (configuration not stated) , which call appears in the assay record?
false

Per the assay record, what outcome was assigned to CCCCCCCCCC ?
false

Field: outcome | Entry: O=C(O)CCCC[C@@H]1SC[C@@H]2NC(=O)N[C@@H]21
false

Name the outcome recorded for COc1cc([C@H]2Oc3cc([C@H]4Oc5cc(O)cc(O)c5C(=O)[C@@H]4O)ccc3O[C@@H]2CO)ccc1O in the assay.
false

Recorded test call requested for CC(=O)Nc1ccc(CC(=O)O)cc1
false

Could you check what this test reported for CC1(C)[C@@H]2CC[C@@]1(C)C(=O)C2 ?
false

Please share the test call associated with c1ccc2cc3c(ccc4ccccc43)cc2c1 .
false

Test call for this compound, please: CC(C)(C)[C@@H](O)[C@@H](Cc1ccc(Cl)cc1)n1cncn1
false

Could you check what this test reported for OC(Cn1cncn1)(Cn1cncn1)c1ccc(F)cc1F ?
false

Tell me the recorded outcome of this test for CCc1nc(N)nc(N)c1-c1ccc(Cl)cc1 .
true

Recorded test outcome, item CCc1ccc(CCOc2ccc(CC3SC(=O)NC3=O)cc2)nc1 (configuration not stated)
false

Look up the recorded call for Oc1ccc(Cc2ccccc2O)cc1 in this test.
false
